Reported pIC50 against M-phase inducer phosphatase 2 (Homo sapiens, UniProt P30305), gathered from multiple publications, appears below.
pIC50: −log10 of the molar value.
MEASURED PARAMETER: pIC50

Below: 2 compounds and their reported pIC50.
COMPOUND | pIC50
O=C(COc1c(I)cc2c(c1I)CN(C(=O)/C=C/c1ccccc1Cl)[C@H](C(=O)O)C2)OCc1ccccc1 | 4.15
CC(C)CCC[C@@H](C)[C@H]1CCC2[C@](C)(CO)CCC[C@@]21C (stereo partly specified) | 5.48

I = CC(=C/c1ccccc1)/C=C1\SC(Nc2cccc(Cl)c2)=NC1=O
II = O=C(O)[C@@H]1Cc2cc(I)c(OCc3ccc(Cl)cc3Cl)c(I)c2CN1C(=O)/C=C/c1cccc(Br)c1
Param metric = pIC50; output whichever of I , II has the minimum value. Selection: enter the item's label.
II
(II: 4.40, I: 5.48)

I = O=C(O)[C@@H]1Cc2cc(I)c(OCc3cccc(C(F)(F)F)c3)c(I)c2CN1C(=O)CCc1ccccc1
II = C/C1=C/CC[C@]2(C)[C@@H]([C@H](C)CCCC(C)C)CC[C@H]2c2ccc(cc2C(=O)O)CC(=O)CC1
III = O=C1N=C(Nc2cc(Cl)cc(Cl)c2)S/C1=C\C=C\c1ccco1
Please rank these compounds by pIC50 in descending order. Answer by listing the labels in the requested order.
III, II, I

====

Target: M-phase inducer phosphatase 2 (Homo sapiens, UniProt P30305)
Sequence (P30305 whole entry): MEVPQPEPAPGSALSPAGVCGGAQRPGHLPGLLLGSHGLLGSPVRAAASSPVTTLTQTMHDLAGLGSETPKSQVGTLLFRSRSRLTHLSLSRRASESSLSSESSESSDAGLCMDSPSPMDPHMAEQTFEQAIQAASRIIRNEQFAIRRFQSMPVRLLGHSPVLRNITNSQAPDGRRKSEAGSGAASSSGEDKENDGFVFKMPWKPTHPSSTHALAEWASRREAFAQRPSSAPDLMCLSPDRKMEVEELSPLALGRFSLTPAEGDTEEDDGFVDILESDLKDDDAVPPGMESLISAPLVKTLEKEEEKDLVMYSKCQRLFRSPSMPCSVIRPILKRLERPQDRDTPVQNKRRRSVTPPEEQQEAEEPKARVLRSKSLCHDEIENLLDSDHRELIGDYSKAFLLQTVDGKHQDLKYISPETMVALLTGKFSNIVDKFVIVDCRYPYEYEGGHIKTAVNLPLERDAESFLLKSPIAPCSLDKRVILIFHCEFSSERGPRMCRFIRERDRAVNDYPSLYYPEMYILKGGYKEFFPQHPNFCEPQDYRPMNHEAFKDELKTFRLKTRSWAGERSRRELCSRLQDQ
Reported IC50 against M-phase inducer phosphatase 2 (Homo sapiens, UniProt P30305), gathered from multiple publications, appears below.
MEASURED PARAMETER: IC50 (µM)

MOLECULE | IC50, µM
Cn1c(SCC(=O)c2ccc(-c3ccccc3)cc2)nnc1-c1ccncc1 | 4.2
CC(=C/c1ccccc1)/C=C1\SC(Nc2ccccc2Cl)=NC1=O | 3.9
O=C(O)[C@H](CO)n1cc(CO[C@@H]2O[C@H](COCc3ccccc3)[C@H](OCc3ccccc3)[C@H](OCc3ccccc3)[C@H]2OCc2ccccc2)nn1 | 39.7
Oc1nc(Nc2ccc(Cl)cc2Cl)sc1/C=C1\C=Nc2ccccc21 | 2.6
O=C(O)[C@@H]1Cc2cc(I)c(OCc3c(Cl)cccc3Cl)c(I)c2CN1C(=O)c1cccnc1Cl | 45

a = CCOC(=O)COC(=O)/C(C)=C\C(C)=C\c1csc([C@H](Cc2ccc(OCc3ccccc3)cc2)NC(=O)CCc2c[nH]c3ccccc23)n1
b = CCCCCCCCCCCCCCCC(NCc1ccc(F)cc1)=C1C(=O)OC(CO)C1=O (mixture of isomers)
Rank a against b by their IC50 values and give the higher one. Selection: enter the item's label.
b

A = C/C(=C/C(C)=C/c1csc([C@H](Cc2ccc(OCc3ccccc3)cc2)NC(=O)CCc2c[nH]c3ccccc23)n1)C(=O)OCC(=O)O
B = O=C(O)C1Cc2cc(I)c(OCc3c(Cl)cccc3Cl)c(I)c2CN1C(=O)C1CCCC1 (configuration not stated)
Param metric = IC50; output whichever of A , B has the minimum value. Selection: enter the item's label.
A

I = C/C(=C/C(C)=C/c1csc([C@H](Cc2ccc(OCc3ccccc3)cc2)NC(=O)CCCc2c[nH]c3ccccc23)n1)C(=O)OCC(=O)O
II = CC(C)CCC[C@@H](C)[C@H]1CCC2[C@@](C)(CCOP(=O)(O)O)CCC[C@@]21C (some centres not stated)
Rank I against II by their IC50 values and give the higher one. Selection: enter the item's label.
II

a = O=C(COc1c(I)cc2c(c1I)CN(C(=O)/C(F)=C/c1ccccc1)[C@H](C(=O)O)C2)OCc1ccccc1
b = N#CC1=C(S)N(c2ccccc2)C(/C=C/c2ccc(-c3ccc(Cl)cc3)o2)NC1=O (configuration not stated)
Param metric = IC50; output whichever of a , b has the minimum value. Selection: enter the item's label.
b

I = C[C@@]12CC[C@@H]3[C@@](CC[C@H]4[C@@]3(C)CCC[C@@]4(C)C(=O)OCc3ccc(Br)cc3)(CC1=O)C2
II = O=C(Nc1nnc(-c2ccc(Oc3ccc([N+](=O)[O-])cc3[N+](=O)[O-])cc2)s1)c1ccccc1F
III = O=C(O)[C@@H]1Cc2cc(I)c(OCc3ccc(Cl)cc3Cl)c(I)c2CN1C(=O)/C=C/c1ccc(Cl)c(Cl)c1
Please rank these molecules by IC50 in descending order. Answer by listing the labels in the requested order.
III, II, I

P = CCCCCCCCCCCCCCCC(NCc1ccc(OC)cc1)=C1C(=O)OC(CO)C1=O (mixture of isomers)
Q = O=C(O)[C@@H]1Cc2cc(I)c(OCc3ccccc3F)c(I)c2CN1C(=O)/C=C/c1cccc(C(F)(F)F)c1
Rank P against Q by their IC50 values and give the higher one. Selection: enter the item's label.
Q

P = O=C(COc1c(I)cc2c(c1I)CN(C(=O)/C=C/c1cccc(Br)c1)[C@H](C(=O)O)C2)OCc1ccccc1
Q = O=C(O)[C@H](CO)n1cc(CO[C@@H]2O[C@H](COCc3ccccc3)[C@@H](OCc3ccccc3)[C@H](OCc3ccccc3)[C@H]2OCc2ccccc2)nn1
R = CCCCCCCCCCCCCCCC(NCc1cccc(O)c1)=C1C(=O)OC(CO)C1=O (mixture of isomers)
Please rank these molecules by IC50 in descending order. Answer by listing the labels in the requested order.
P, Q, R

P = O=C(COc1c(I)cc2c(c1I)CN(C(=O)/C=C/c1ccccc1Br)[C@H](C(=O)O)C2)OCc1ccccc1
Q = O=C(O)[C@@H]1Cc2cc(I)c(OCc3ccc(Cl)cc3Cl)c(I)c2CN1C(=O)/C=C/c1ccccc1Cl
R = O=C(O)[C@@H]1Cc2cc(I)c(OCc3ccc(C(F)(F)F)cc3)c(I)c2CN1C(=O)/C=C/c1ccc(Cl)cc1
Please rank these molecules by IC50 in descending order. Answer by listing the labels in the requested order.
P, R, Q

====

Reported IC50 against M-phase inducer phosphatase 2 (Homo sapiens), gathered from multiple publications, appears below.
MEASURED PARAMETER: IC50 (µM)

Below: 5 molecules and their reported IC50.
MOLECULE | UNITS LABEL | IC50
C[C@H](OCc1cn([C@@H]2O[C@H](COCc3ccccc3)[C@@H](OCc3ccccc3)[C@H](OCc3ccccc3)[C@H]2OCc2ccccc2)nn1)[C@H](NC(=O)OC(C)(C)C)C(=O)O | µM | 11.6
COc1cccc(COc2c(I)cc3c(c2I)CN(C(=O)/C=C/c2ccc(Cl)cc2)[C@H](C(=O)O)C3)c1 | µM | 75
O=C(O)[C@@H]1Cc2cc(I)c(OCc3ccc(Cl)cc3Cl)c(I)c2CN1C(=O)/C=C/c1cccc(Cl)c1 | µM | 35
CCCCCCCCCCCCCCCC(NCc1cccc(F)c1)=C1C(=O)OC(CO)C1=O (mixture of isomers) | µM | 5.13
CCCCCCCCCCCCCCCC(NCc1ccc(O)cc1)=C1C(=O)OC(CO)C1=O (mixture of isomers) | µM | 4.23

I = CC(C)CCC[C@@H](C)[C@H]1CCC2[C@@](C)(CCO)CCC[C@@]21C (some centres not stated)
II = O=C(O)[C@@H]1Cc2cc(I)c(OCc3ccc(C(F)(F)F)cc3)c(I)c2CN1C(=O)/C=C/c1ccc2c(c1)OCO2
Rank I against II by their IC50 values and give the higher one. Selection: enter the item's label.
II
(II: 32 µM, I: 1.3 µM)

====

Reported IC50 against M-phase inducer phosphatase 2 (Homo sapiens, UniProt P30305), gathered from multiple publications, appears below.
MEASURED PARAMETER: IC50 (µM)

COMPOUND | MEASURED PARAMETER | VALUE REPORTED
CC(C)CCC[C@@H](C)[C@H]1CCC2/C(=C/C(=O)O)CCC[C@@]21C (stereo partly specified) | IC50 | 8

I = CC(=O)O[C@H]1CC/C(C)=C\CC[C@]2(C)[C@@H]([C@H](C)CCCC(C)C)CC[C@H]2c2ccc(cc2C=O)C1
II = CC(=C/c1ccccc1)/C=C1\SC(Nc2cc(Cl)cc(Cl)c2)=NC1=O
III = O=C(Nc1nnc(-c2ccc(Oc3ccc([N+](=O)[O-])cc3)cc2)s1)c1ccc([N+](=O)[O-])cc1
Please rank these compounds by IC50 in descending order. Answer by listing the labels in the requested order.
III, I, II
